Molecular target: 5-HT Transporter (SERT) sites in mouse brain (Mus musculus (Mouse))
Assay: Ex vivo [3H] citalopram binding to SERT sites in mouse brain after oral dosing
Details: mice, 1 mg/kg PO, 60 min after treatment
# strict inequality: SERT Mean Specific Binding ± S.E.M. < 3000 dpm yields yes (1), everything else yields no (0)

Compound: CNCC1(c2ccc(Cl)c(Cl)c2)CCC(C)(O)CC1 (stereo not shown) [Compound 276]
Assayed System: 5-HT Transporter (SERT) sites in mouse brain (Mus musculus (Mouse))
Class: no (0)
//
Compound: CN(C)C[C@]1(c2ccc3ccccc3c2)CC[C@](C)(O)CC1 [Compound 225]
Assayed System: 5-HT Transporter (SERT) sites in mouse brain (Mus musculus (Mouse))
Class: no (0)
//
Compound: CC(N(C)C)C1(c2ccc3ccccc3c2)CCCCC1 (single isomer, unassigned) [56 E1]
Assayed System: 5-HT Transporter (SERT) sites in mouse brain (Mus musculus (Mouse))
Class: yes (1)
//
Compound: CN(C)C[C@]1(c2ccc(Cl)c(Cl)c2)CCCC[C@H]1O (relative stereo) [153 E2]
Assayed System: 5-HT Transporter (SERT) sites in mouse brain (Mus musculus (Mouse))
Class: no (0)
//
Compound: CN(C)C[C@]1(c2ccc3ccccc3c2)CCCC[C@H]1O (relative stereo) [164 E1]
Assayed System: 5-HT Transporter (SERT) sites in mouse brain (Mus musculus (Mouse))
Class: yes (1)

hey, is SERT Mean Specific Binding ± S.E.M. for CNC(C)C1(c2ccc3ccccc3c2)CCCCC1 (single isomer, unassigned) [58 E1] lower than 3000 dpm or not?
no (0)

Please answer likewise for CN(C)CC1(c2ccc(Cl)c(Cl)c2)CCC(C)(O)CC1 (stereo not shown) [Compound 277]
yes (1)

====

Measured receptor occupancy at 3 mg/kg, listed per entry.
Target: DA Transporter (DAT) sites in mouse brain (Mus musculus (Mouse))
Assay: Ex vivo [3H] WIN 35428 binding to DAT sites in mouse brain after oral dosing
Details: mouse; mice, 3 mg/kg PO, 60 min after treatment
Structures can show the parent of a compound that is named as a salt.
Kindly write the number and append the unit.

For orientation, consider the following solved cases.
Compound: CN(C)CC1(c2ccc(Cl)c(Cl)c2)CCC(C)(O)CC1 (stereo not shown)
receptor occupancy at 3 mg/kg: 21%

Compound: CN[C@H](C)C1(c2ccc(Cl)c(Cl)c2)CCCCC1 (stereo in doubt) [48 E1, hydrochloride]
receptor occupancy at 3 mg/kg: 11%

Compound: CN(C)C[C@]1(c2ccc(Cl)c(Cl)c2)CCCC[C@H]1O (relative stereo) [153 E2]
receptor occupancy at 3 mg/kg: -16%

I'd like to know its receptor occupancy at 3 mg/kg. The compound in question is CNCC1(c2ccc(Cl)c(Cl)c2)CCC(C)(O)CC1 (stereo not shown)
-9%

Please answer likewise for CNC(C)C1(c2ccc3ccccc3c2)CCCCC1 (single isomer, unassigned) [58 E1]
11%

Please answer likewise for CN(C)C[C@]1(c2ccc3ccccc3c2)CCCC[C@H]1O (relative stereo) [164 E1]
16%

Please answer likewise for CC(N(C)C)C1(c2ccc3ccccc3c2)CCCCC1 (single isomer, unassigned) [56 E1]
4%

====

Test system: Rats
Assay: Rat forced swim test
Assay type: in vivo
Conditions: 30 mg/kg PO
Counter-ions that a name gives are not always drawn.
# strict inequality: Rat Forced Swim Swimming (Means ± S.E.M.) < 5 yields T, everything else yields F

hey, is Rat Forced Swim Swimming (Means ± S.E.M.) for CN(C)C[C@]1(c2ccc(Cl)c(Cl)c2)CCCC[C@H]1O (relative stereo) [153 E2] lower than 5 or not?
T

Please answer likewise for CC(N(C)C)C1(c2ccc3ccccc3c2)CCCCC1 (single isomer, unassigned) [56 E1]
T

Please answer likewise for "CN(C)C[C@]1(c2ccc3ccccc3c2)CC[C@](C)(O)CC1"
T

Please answer likewise for CN[C@H](C)C1(c2ccc(Cl)c(Cl)c2)CCCCC1 (stereo in doubt) [48 E1, hydrochloride]
F

Please answer likewise for "CNCC1(c2ccc3ccccc3c2)CCCCC1"
F
